Target: EGFR(L858R/T790M) (Homo sapiens, UniProt P00533, L858R/T790M)
Construct: purchased from Carna (GST-a.a. 669-1210)
Sequence (P00533 669-1210 T790M/L858R): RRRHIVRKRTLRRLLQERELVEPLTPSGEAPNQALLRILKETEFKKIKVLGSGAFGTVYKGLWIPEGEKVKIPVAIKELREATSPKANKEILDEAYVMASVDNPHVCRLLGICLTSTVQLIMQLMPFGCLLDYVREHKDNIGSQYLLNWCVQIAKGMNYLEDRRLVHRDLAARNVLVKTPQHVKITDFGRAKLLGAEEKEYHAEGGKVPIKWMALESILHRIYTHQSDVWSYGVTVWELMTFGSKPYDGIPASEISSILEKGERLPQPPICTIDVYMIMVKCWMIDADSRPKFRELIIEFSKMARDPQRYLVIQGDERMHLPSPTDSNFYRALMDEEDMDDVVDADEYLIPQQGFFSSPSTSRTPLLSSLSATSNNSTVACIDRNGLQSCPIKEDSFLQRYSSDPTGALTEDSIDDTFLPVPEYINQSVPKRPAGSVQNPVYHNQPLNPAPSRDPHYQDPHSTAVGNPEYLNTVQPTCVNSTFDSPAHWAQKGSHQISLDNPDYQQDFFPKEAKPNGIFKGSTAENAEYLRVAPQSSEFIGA
Experiment: EGFR biochemical assay (HTRF), IC50 determinations
Conditions: EGFR (L858R/T790M) with no pre-incubation; read-out: IC50 (μM) Column A
Answer each item with its documented log10(IC50).
Hello, just confirming the data are log10 of IC50 with units of µM.

Below: 10 compounds and their reported log10(IC50).
Cc1cccc2nc(NC(=O)c3cnc(Cl)c(Cl)c3)n([C@@H]3CCCCN(C(=O)/C=C/CN(C)C)C3)c12    -2.22
C=CC(=O)N1CCCC[C@@H](n2c(NC(=O)c3cccc(C(F)(F)F)c3)nc3cccc(Cl)c32)C1    -1.85
C=CC(=O)N1CCN(C(C)=O)CC(n2c(NC(=O)c3ccnc(C)c3)nc3cccc(Cl)c32)C1 (stereo not drawn)    -0.80
C=CC(=O)N1CCCC[C@@H](n2c(NC(=O)c3cc(C)nc(C)c3)nc3cc(CN4CC[C@@H](F)C4)cc(C)c32)C1    -2.70
C=CC(=O)N1CCCC[C@@H](n2c(NC(=O)c3cccc(C(F)(F)F)c3)nc3cccc(C)c32)C1 (single isomer, unassigned)    -2.22
Cc1cccc2nc(NC(=O)c3cc(Cl)nc(OC(F)(F)F)c3)n([C@@H]3CCCCN(C(=O)/C=C/CN(C)C)C3)c12    -1.74
CNC/C=C/C(=O)N1CCCC[C@@H](n2c(NC(=O)c3cc(C)nc(C)c3)nc3cccc(Cl)c32)C1    -2.40
Cc1cccc2nc(NC(=O)c3ccc(F)cc3)n(C3CCCCN(C(=O)/C=C/CN(C)C)C3)c12 (stereo not drawn)    -2.30
CC(C)Oc1cccc2nc(NC(=O)c3ccnnc3)n([C@@H]3CCCCN(C(=O)/C=C/CN(C)C)C3)c12    -1.42
C=CC(=O)N1CCCC[C@@H](n2c(NC(=O)c3ccccc3)nc3cccc(CN(C)C)c32)C1    -2.70

Record log10(IC50) for all entries; do not skip any.
1. CN(C)C/C=C/C(=O)N1CCCC[C@@H](n2c(NC(=O)c3ccnnc3)nc3cccc(Cl)c32)C1
2. C=CC(=O)N1CCC[C@@H](n2c(NC(=O)c3cccc(C(F)(F)F)c3)nc3cc(C(=O)OC)ccc32)C1
3. Cc1cc(C(=O)Nc2nc3cccc(C)c3n2[C@@H]2CCCCN(C(=O)/C=C/CN3CCCC3)C2)ccn1

Result:
-2.15
1.03
-2.10

Record log10(IC50) for all entries; do not skip any.
1. C=CC(=O)N1CCCC[C@@H](n2c(NC(=O)c3ccnc(C)c3)nc3cc(CN4CC[C@@H](OC)C4)cc(C)c32)C1
2. Cc1cc(C(=O)Nc2nc3cccc(Cl)c3n2[C@@H]2CCCCN(C(=O)/C=C/CN3CCC3)C2)ccn1
3. C=CC(=O)N1CCCC[C@@H](n2c(NC(=O)c3cnnc(C)c3)nc3cc(CN4CCCC4)cc(C)c32)C1

Result:
-2.52
-0.88
-2.10

Record log10(IC50) for all entries; do not skip any.
1. C/C=C/C(=O)N1CCCC[C@@H](n2c(NC(=O)c3cc(C)nc(C)c3)nc3ccc(OCCN4CCCC4)c(Cl)c32)C1
2. Cc1cccc2nc(NC(=O)c3cccnc3)n(C3CCCCN(C(=O)/C=C/CN(C)C)C3)c12 (stereo not drawn)
3. C/C=C/C(=O)N1CCCC[C@@H](n2c(NC(=O)c3cc(C)nc(C)c3)nc3cc(CN4CC[C@H](OC)C4)cc(C)c32)C1

Result:
-0.94
-2.52
-1.27

Record log10(IC50) for all entries; do not skip any.
1. Cc1cccc2nc(NC(=O)c3cc(F)cc(F)c3)n(C3CCCCN(C(=O)/C=C/CN(C)C)C3)c12 (stereo not drawn)
2. Cc1cccc2nc(NC(=O)c3ccnc(N(C)C)c3)n(C3CCCCN(C(=O)/C=C/CN(C)C)C3)c12 (stereo not drawn)
3. C=CC(=O)N1CCCC[C@@H](n2c(NC(=O)c3ccccc3)nc3cc(CN(C)CCS(C)(=O)=O)cc(C)c32)C1

Result:
-2.52
-2.05
-2.70

###

Answer each item with its documented pIC50.
Target: HaCaT (EGFR WT) (Homo sapiens, UniProt P00533)
Sequence (P00533 25-1210): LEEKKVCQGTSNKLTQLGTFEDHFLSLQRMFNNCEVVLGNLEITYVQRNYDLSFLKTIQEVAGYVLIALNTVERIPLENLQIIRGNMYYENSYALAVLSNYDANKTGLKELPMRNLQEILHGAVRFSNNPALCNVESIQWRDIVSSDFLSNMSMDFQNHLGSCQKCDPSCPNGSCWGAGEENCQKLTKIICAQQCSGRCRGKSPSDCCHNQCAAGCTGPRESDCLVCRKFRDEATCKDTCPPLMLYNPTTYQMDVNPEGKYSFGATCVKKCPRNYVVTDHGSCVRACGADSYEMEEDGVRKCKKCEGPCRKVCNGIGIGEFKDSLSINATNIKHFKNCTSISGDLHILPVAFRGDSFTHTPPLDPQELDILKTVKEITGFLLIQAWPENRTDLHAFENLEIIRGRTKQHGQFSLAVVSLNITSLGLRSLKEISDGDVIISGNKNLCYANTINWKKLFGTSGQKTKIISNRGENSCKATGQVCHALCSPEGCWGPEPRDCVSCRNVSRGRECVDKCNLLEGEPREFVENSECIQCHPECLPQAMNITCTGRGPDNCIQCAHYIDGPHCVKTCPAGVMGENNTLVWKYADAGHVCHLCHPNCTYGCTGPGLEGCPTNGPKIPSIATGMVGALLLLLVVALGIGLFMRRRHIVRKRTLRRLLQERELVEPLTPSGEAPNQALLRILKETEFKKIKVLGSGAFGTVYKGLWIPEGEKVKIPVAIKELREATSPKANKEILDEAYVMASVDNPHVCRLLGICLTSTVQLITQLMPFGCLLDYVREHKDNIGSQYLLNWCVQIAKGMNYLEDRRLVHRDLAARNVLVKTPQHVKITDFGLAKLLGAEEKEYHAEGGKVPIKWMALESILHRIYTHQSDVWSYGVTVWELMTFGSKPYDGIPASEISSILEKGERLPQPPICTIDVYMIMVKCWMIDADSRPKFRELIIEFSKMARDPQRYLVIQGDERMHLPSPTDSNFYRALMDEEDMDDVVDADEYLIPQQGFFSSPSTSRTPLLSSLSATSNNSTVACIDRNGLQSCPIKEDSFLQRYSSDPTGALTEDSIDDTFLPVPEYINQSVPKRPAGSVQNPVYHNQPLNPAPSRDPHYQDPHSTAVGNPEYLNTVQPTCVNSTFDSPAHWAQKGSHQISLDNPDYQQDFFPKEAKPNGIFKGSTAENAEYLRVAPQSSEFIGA
Test: EGFR target modulation in HaCaT (EGFR-WT) cell line (phospho-EGFR Y1173 ELISA)
Conditions: value in parentheses
Numbers only, as −log10 of the molar value.

Below: 2 compounds and their reported pIC50.
C=CC(=O)N1CCCC[C@@H](n2c(NC(=O)c3ccnc(C)c3)nc3cc(CN4CC[C@H](OC)C4)cc(C)c32)C1    7.32
C=CC(=O)N1CCCC[C@@H](n2c(NC(=O)c3ccnc(C)c3)nc3cc(CN4CC[C@H](F)C4)cc(C)c32)C1    7.36

Then this compound:
The compound listed as C=CC(=O)N1CCCC[C@@H](n2c(NC(=O)c3ccnc(C)c3)nc3cc(CN4CC(F)C4)cc(C)c32)C1 has a reported pIC50 of 7.34

###

Target: human EGFR WT (NIH/3T3 cells, EGF-induced) (Homo sapiens, UniProt P00533)
Sequence (P00533 25-1210): as above
Test: EGFR target modulation in engineered NIH/3T3 cell lines (phospho-EGFR Y1068 AlphaLISA), EGFR WT
Assay type: cell-based
Conditions: engineered NIH/3T3 cells, read-out: NIH3T3 IC50 (μM) EGFR (WT)
Method: EGFR Target Modulation in Engineered NIH/3T3 Cell Lines Tissue Culture. The cells were harvested with 0.05% Trypsin/EDTA (Hyclone #SH30236.01), re-suspended in 5% FBS/DMEM Pen/Strep without Puromycin and plated at 9,000 cells per well in 50 μl of media in a 384-well black plate with clear bottoms (Greiner #789068G). […] With these parameters, the IC50's for each compound in each cell line was calculated using non-linear curve fitting analysis.
Mark yes (1) only when IC50 stays strictly below 0.05 µM. Values equal to the cut-off are no (0).

C=CC(=O)N1CCOCC(n2c(NC(=O)c3cccc(C(F)(F)F)c3)nc3cccc(C)c32)C1 (single isomer, unassigned) [Example 21-7A]    no (0)
Cc1cccc2nc(NC(=O)c3ccnc(-n4cnnn4)c3)n(C3CCCCN(C(=O)/C=C/CN(C)C)C3)c12 (stereo not shown)    yes (1)
C=CC(=O)N1CCCC[C@@H](n2c(NC(=O)c3ccnc(C)c3)nc3cc(CN4CC[C@H](O)C4)cc(C)c32)C1    no (0)
COC1CN(C/C=C/C(=O)N2CCCC[C@@H](n3c(NC(=O)c4ccnc(C)c4)nc4cccc(Cl)c43)C2)C1    no (0)
Cc1cccc2nc(NC(=O)c3ccnc(C(F)(F)F)c3)n([C@@H]3CCCCN(C(=O)/C=C/CN(C)C)C3)c12    yes (1)

Task: Decide: IC50 of C=CC(=O)N1CCCC[C@@H](n2c(NC(=O)c3cnnc(C)c3)nc3cccc(C)c32)C1 strictly below 0.05 µM?
Result: no (0)

Task: Decide: IC50 of Cc1cccc2nc(NC(=O)c3ncccn3)n(C3CCCCN(C(=O)/C=C/CN(C)C)C3)c12 (stereo not shown) strictly below 0.05 µM?
Result: no (0)

###

Molecular target: human EGFR WT (NIH/3T3 cells, EGF-induced) (Homo sapiens, UniProt P00533)
Assay: EGFR target modulation in engineered NIH/3T3 cell lines (phospho-EGFR Y1068 AlphaLISA), EGFR WT
Format: cell-based
Conditions: engineered NIH/3T3 cells, read-out: NIH3T3 IC50 (μM) EGFR (WT)
reported metric: IC50 (µM)
Answers are plain numbers, in µM.

Record IC50 for all entries; do not skip any.
1. Cc1cc(C(=O)Nc2nc3cccc(Cl)c3n2[C@@H]2CCCCN(C(=O)/C=C/CN3CCC3)C2)ccn1 [Example 3-12]
2. Cc1cccc2nc(NC(=O)c3ccc(Cl)nc3)n([C@@H]3CCCCN(C(=O)/C=C/CN(C)C)C3)c12 [Example 17-77]
3. Cc1cccc2nc(NC(=O)c3ccnc(N(C)C)c3)n(C3CCCCN(C(=O)/C=C/CN(C)C)C3)c12 (stereo not shown) [Example 17-50]
4. CO[C@H]1CCN(C/C=C/C(=O)N2CCCC[C@@H](n3c(NC(=O)c4ccnc(C)c4)nc4cccc(Cl)c43)C2)C1 [Example 3-5]
5. C=C(CN1CCCCC1)C(=O)N1CCCC[C@@H](n2c(NC(=O)c3ccnnc3)nc3cccc(C)c32)C1 [Example 17-90]

Result:
1.13
0.008
0.086
0.259
0.76

###

Target: human EGFR L858R/T790M (NIH/3T3 cells) (Homo sapiens, UniProt P00533, L858R/T790M)
Sequence (P00533 25-1210 T790M/L858R): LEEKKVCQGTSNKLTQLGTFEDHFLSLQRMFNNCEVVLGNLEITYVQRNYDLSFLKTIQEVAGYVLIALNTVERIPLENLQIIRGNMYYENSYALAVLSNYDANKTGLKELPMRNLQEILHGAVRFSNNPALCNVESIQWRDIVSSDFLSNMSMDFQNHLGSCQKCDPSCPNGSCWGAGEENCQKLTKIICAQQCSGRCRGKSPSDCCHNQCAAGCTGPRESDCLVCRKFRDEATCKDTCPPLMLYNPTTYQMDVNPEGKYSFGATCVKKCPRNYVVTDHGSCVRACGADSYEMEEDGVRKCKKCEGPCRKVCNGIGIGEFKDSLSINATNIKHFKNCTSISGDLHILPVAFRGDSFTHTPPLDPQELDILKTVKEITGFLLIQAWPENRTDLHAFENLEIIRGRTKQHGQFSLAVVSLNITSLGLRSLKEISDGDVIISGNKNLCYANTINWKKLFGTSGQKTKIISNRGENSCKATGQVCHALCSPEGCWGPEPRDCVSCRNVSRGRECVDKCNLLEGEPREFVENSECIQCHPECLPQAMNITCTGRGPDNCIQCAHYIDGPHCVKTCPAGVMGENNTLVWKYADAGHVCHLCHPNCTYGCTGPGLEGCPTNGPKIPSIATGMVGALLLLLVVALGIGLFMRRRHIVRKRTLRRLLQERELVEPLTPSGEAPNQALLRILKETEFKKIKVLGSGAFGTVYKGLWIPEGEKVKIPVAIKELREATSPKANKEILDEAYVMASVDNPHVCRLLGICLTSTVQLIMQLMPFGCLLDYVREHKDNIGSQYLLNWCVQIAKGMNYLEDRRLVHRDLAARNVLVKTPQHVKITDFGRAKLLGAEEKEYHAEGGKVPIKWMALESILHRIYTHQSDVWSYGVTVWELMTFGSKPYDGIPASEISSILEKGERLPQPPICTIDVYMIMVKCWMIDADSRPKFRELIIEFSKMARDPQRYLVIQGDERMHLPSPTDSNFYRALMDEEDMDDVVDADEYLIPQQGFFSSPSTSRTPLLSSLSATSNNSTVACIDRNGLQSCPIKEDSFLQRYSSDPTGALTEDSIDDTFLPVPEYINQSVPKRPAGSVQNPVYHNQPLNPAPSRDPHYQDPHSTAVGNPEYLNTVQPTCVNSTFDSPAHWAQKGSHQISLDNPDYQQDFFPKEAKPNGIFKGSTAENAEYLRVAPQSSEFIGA
Experiment: EGFR target modulation in engineered NIH/3T3 cell lines (phospho-EGFR Y1068 AlphaLISA), EGFR L858R/T790M
Assay type: cell-based
Conditions: engineered NIH/3T3 cells, read-out: NIH3T3 IC50 (μM) EGFR (L858R/T790M)
reported metric: log10 of IC50 (log10 of the value in µM)
Hello, just confirming the data are log10 of IC50 with units of µM.

Cc1cccc2nc(NC(=O)c3cccnc3)n(C3CCCCN(C(=O)/C=C/CN(C)C)C3)c12 (stereo not shown) [Example 17-23]    -2.52
C=CC(=O)N1CCCCC(n2c(NC(=O)c3ccccc3)nc3cccc(C(=O)N4C[C@@H](O)[C@H](O)C4)c32)C1 (stereo partly shown) [Example 17-140]    -0.74
Cc1cccc2nc(NC(=O)c3ccccn3)n(C3CCCCN(C(=O)/C=C/CN(C)C)C3)c12 (stereo not shown) [Example 17-34]    -0.66
C=CC(=O)N1CCC[C@@H](n2c(NC(=O)c3cccc(C(F)(F)F)c3)nc3cc(C(=O)OC)ccc32)C1 [Example 17-110]    -0.34
C=CC(=O)N1CCCC[C@H](n2c(NC(=O)c3cccc(C(F)(F)F)c3)nc3cccc(C)c32)C1 (single isomer, unassigned) [Example 21-3]    -0.35

Record log10 of IC50 for all entries; do not skip any.
1. C=CC(=O)N1CCCC[C@@H](n2c(NC(=O)c3cccc(C(F)(F)F)c3)nc3cccc(C(F)(F)F)c32)C1 [Example 17-12]
2. Cc1cncc(C(=O)Nc2nc3cccc(C)c3n2[C@@H]2CCCCN(C(=O)/C=C/CN(C)C)C2)c1 [Example 17-68]

Result:
[-2.10, -3.00]
